molecular target: soluble guanylate cyclase (Homo sapiens, UniProt Q02153); assay: CHO cellular assay (cGMP production, Cisbio cGMP HTRF); details: CHO K1 cells overexpressing human GUCYA3/GUCYB3 (clone 8E10), 1 mM IBMX, 20 uM ODQ, 1 h room temperature, listed 0.5 nM means actual EC50 ≤0.5 nM (quantification limit)
Sequence (Q02108 whole entry partner): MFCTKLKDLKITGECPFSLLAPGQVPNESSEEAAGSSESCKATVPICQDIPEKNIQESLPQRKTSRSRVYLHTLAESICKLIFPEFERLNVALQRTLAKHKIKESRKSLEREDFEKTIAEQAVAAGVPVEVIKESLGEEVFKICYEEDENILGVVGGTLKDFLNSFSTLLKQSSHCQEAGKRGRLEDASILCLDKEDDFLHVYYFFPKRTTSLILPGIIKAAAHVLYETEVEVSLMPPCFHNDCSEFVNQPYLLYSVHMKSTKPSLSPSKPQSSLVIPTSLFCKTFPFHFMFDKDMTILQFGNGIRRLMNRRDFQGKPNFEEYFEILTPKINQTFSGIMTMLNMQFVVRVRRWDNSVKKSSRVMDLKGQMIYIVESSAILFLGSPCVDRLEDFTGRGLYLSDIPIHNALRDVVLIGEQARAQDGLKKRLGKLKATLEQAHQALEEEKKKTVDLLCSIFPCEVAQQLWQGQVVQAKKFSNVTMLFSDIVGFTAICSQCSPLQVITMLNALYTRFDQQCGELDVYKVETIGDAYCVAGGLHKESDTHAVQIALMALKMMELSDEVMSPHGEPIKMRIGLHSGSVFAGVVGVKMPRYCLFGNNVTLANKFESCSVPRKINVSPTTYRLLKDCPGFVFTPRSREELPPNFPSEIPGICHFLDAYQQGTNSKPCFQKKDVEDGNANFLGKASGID
Sequence (Q02153 whole entry): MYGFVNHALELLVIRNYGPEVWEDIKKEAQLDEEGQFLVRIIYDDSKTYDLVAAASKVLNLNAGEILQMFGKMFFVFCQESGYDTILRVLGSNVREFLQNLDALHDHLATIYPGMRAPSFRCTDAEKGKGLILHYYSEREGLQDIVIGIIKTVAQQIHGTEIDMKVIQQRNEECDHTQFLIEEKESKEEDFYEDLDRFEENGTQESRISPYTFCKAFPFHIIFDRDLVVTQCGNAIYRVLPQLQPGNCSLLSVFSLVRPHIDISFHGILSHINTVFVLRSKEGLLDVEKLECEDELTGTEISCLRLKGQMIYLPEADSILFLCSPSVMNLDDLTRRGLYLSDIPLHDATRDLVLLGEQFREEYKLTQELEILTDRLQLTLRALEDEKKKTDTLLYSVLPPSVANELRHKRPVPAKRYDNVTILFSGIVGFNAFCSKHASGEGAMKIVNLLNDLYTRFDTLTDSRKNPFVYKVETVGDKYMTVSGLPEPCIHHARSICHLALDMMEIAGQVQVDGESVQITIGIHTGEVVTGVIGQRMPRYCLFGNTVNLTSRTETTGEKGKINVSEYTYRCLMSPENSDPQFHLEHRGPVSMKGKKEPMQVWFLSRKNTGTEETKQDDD
experimental endpoint: EC50 (nM)

Examples with answers:
# compound, target desc, EC50, nM
data = [
    ("Cc1cc(C2CCN(C(=O)C3CC3)CC2)ccc1OCC1=C(c2cccc(-n3ncc(C(=O)O)c3C(F)(F)F)n2)CCC1", "soluble guanylate cyclase (Homo sapiens, UniProt Q02153)", 2.4),
    ("Cc1cc(C2CCN(S(=O)(=O)C3CC3)CC2)ccc1OCC1=C(c2cccc(-n3ncc(C(=O)O)c3C(F)(F)F)n2)CCCC1", "soluble guanylate cyclase (Homo sapiens, UniProt Q02153)", 1),
    ("Cc1cc(C2CCN(C(=O)N(C)C)CC2)ccc1OCC1=C(c2cccc(-n3ncc(C(=O)O)c3C(F)(F)F)n2)CCC1", "soluble guanylate cyclase (Homo sapiens, UniProt Q02153)", 3.5),
]

I: CCc1cc(OCC2=C(c3cccc(-n4ncc(C(=O)O)c4C)n3)CCCC2C)ccc1C1CCN(C(=O)C2CC2)CC1 (single isomer, unassigned; (-)) [Example 16b]
II: CCc1cc(OCC2=C(c3cccc(-n4ncc(C(=O)O)c4C(F)(F)F)n3)CCC2C)ccc1C1CCN(C(=O)C2CC2)CC1 (single isomer, unassigned; (+)) [Example 22(b) (+)]
input: Endpoint returns the identifier whose EC50 is numerically larger, either I or II . Mark your answer with the label of the selected entry.
output: I
